Taken from the SangsterLogP compilation.

Quantity name: logP
Answers are plain numbers.

Worked cases, answers included:
1. CCOc1ccc(Cc2cnc(N)nc2N)cc1OCC: 1.72
2. COc1cc(Cc2cnc(N)nc2N)c(Br)cc1Br: 3.17
3. COc1ccc(Cc2cnc(N)nc2N)cc1Br: 1.88
4. COc1cc(Cc2cnc(N)nc2N)ccc1OC1CCCC1: 2.65
5. COc1ccc(Cc2cnc(N)nc2N)cc1I: 2.09

State recorded logP for all listed molecules.
1. COc1cc(Cc2cnc(N)nc2N)ccc1N(C)C
2. CCOc1cc(Cc2cnc(N)nc2N)c(I)c(OCC)c1OCC

[out]
[1.87, 2.9]

###

Please go through the items and note down their logP.

Worked cases, answers included:
1) CCOc1cc(Br)c(Cc2cnc(N)nc2N)cc1OC: 2.18
2) COc1cc(Br)c(Cc2cnc(N)nc2N)cc1OC: 1.64

State recorded logP for all listed molecules.
1. COc1ccc(Br)c(Cc2cnc(N)nc2N)c1
2. COc1ccc(Cc2cnc(N)nc2N)cc1N
3. Nc1ncc(Cc2ccccc2)c(N)n1
4. COc1cc(Cc2cnc(N)nc2N)ccc1Cl
5. COc1ccc(Cc2cnc(N)nc2N)cc1Oc1ccccc1
6. CCCOc1cc(Cc2cnc(N)nc2N)c(Br)cc1OC
7. COc1cc(Cc2cnc(N)nc2N)ccc1C(C)C

[out]
1: 2; 2: 0.76; 3: 1.54; 4: 1.87; 5: 2.12; 6: 2.31; 7: 3.14

###

Quantity name: logP
One number for each entry.

1. CN(C)c1ccc(Cc2cnc(N)nc2N)cc1: 1.82

State recorded logP for all listed compounds.
1. COc1ccc(Cc2cnc(N)nc2N)cc1C(C)C
2. CCCOc1cc(Cc2cnc(N)nc2N)ccc1OC

[out]
[2.79, 1.88]

State recorded logP for all listed compounds.
1. COc1ccc(Cc2cnc(N)nc2N)cc1F
2. COc1ccc(I)cc1Cc1cnc(N)nc1N
3. COc1ccc(Cc2cnc(N)nc2N)cc1C
4. COc1ccc(Cc2cnc(N)nc2N)cc1Nc1ccccc1

[out]
1.08
2.7
1.91
2.88

###

# strict inequality: logP < 2 yields yes (1), everything else yields no (0)

1) COc1c(Br)c(Cc2cnc(N)nc2N)c(Br)c(OC)c1OC: yes (1)

[in] State whether 2 exceeds logP recorded for CCOc1ccc(Cc2cnc(N)nc2N)cc1OC .
[out] yes (1)

[in] Request: CCOc1cc(Cc2cnc(N)nc2N)c(Br)cc1OC
[out] yes (1)

###

Quantity name: logP
Give bare numbers.

Worked cases, answers included:
1. CCCOc1ccc(Cc2cnc(N)nc2N)cc1OC: 2.02
2. COc1ccc(Cc2cnc(N)nc2N)cc1: 1.34
3. CCN(CC)c1cc(Cc2cnc(N)nc2N)ccc1OC: 2.43

Moving on to another compound below.
[in] Data request, read-out logP, for CCCOc1cc(Br)c(Cc2cnc(N)nc2N)cc1OC
[out] 2.84

###

Please go through the items and note down their logP.
Numbers only.

Worked cases, answers included:
1. CCOc1cc(Cc2cnc(N)nc2N)c(Br)c(OCC)c1OCC: 1.81
2. COc1cc(Cc2cnc(N)nc2N)c(Br)c(OC)c1OC: 1.66
3. CCOc1cc(Cc2cnc(N)nc2N)ccc1OC: 1.2

State recorded logP for all listed compounds.
1. CCOc1cc(Cc2cnc(N)nc2N)cc(OCC)c1OCC
2. COc1cc(Cc2cnc(N)nc2N)ccc1Nc1ccccc1
3. COc1ccc(Cc2cnc(N)nc2N)cc1N(C)C
4. COc1cc(Cc2cnc(N)nc2N)ccc1N
5. COc1cc(Cc2cnc(N)nc2N)ccc1Oc1ccccc1
6. COc1ccc(Br)cc1Cc1cnc(N)nc1N
7. COc1ccccc1Cc1cnc(N)nc1N

[out]
1: 2.08; 2: 3.42; 3: 1.68; 4: 0.49; 5: 2.49; 6: 2.44; 7: 1.75
